Provide the recorded abundance fitness for the entries that follow.
B1: POU domain, class 5, transcription factor 1, residues 134 to 212; numbered along this chain, Q01860 (parent)
chain: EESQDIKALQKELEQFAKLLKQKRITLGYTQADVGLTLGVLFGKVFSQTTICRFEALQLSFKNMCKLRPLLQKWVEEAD

Variants of: B1
testProtocol: abundance fitness (aPCA) (normalised: wild type 0, dead -1); higher = more abundant; growth selection in yeast, the domain comes from the species named
assayContext: Homo sapiens

Need abundance fitness of T49P , thanks.
-0.281

Need abundance fitness of Q4L , thanks.
-0.067

Need abundance fitness of E76P , thanks.
-0.892

Need abundance fitness of T30E , thanks.
-1.06

Need abundance fitness of D79Y , thanks.
-0.505

Need abundance fitness of C65W , thanks.
-0.289

Need abundance fitness of V75S , thanks.
-0.106

Need abundance fitness of K44S , thanks.
-0.805

Need abundance fitness of L41E , thanks.
-0.224

Need abundance fitness of L9D , thanks.
-0.385

Need abundance fitness of K11Q , thanks.
0.057

Need abundance fitness of A32N , thanks.
-0.193

Need abundance fitness of R53P , thanks.
-0.287

Need abundance fitness of T49H , thanks.
0.109

Need abundance fitness of Y29R , thanks.
-0.383

Need abundance fitness of K7E , thanks.
-0.025

Need abundance fitness of V45C , thanks.
-0.101

Need abundance fitness of D5A , thanks.
-0.126

Need abundance fitness of T49S , thanks.
-0.072

Need abundance fitness of E77Y , thanks.
0.096

Need abundance fitness of I25L , thanks.
0.249

Need abundance fitness of F61P , thanks.
0.202

Need abundance fitness of T26I , thanks.
-0.313

Need abundance fitness of A32V , thanks.
-0.785

Need abundance fitness of R24A , thanks.
-0.859

Need abundance fitness of E14P , thanks.
-0.613

Need abundance fitness of Y29M , thanks.
0.18

Need abundance fitness of F46M , thanks.
0.023

Need abundance fitness of V75A , thanks.
-0.815

Need abundance fitness of F46W , thanks.
-0.398

Need abundance fitness of V34Q , thanks.
-0.231

Need abundance fitness of K18L , thanks.
-0.091

Need abundance fitness of E14R , thanks.
0.063

Need abundance fitness of I6F , thanks.
0.052

Need abundance fitness of S60C , thanks.
-0.449

Need abundance fitness of K18M , thanks.
0.052

Need abundance fitness of E1S , thanks.
-0.58

Need abundance fitness of T50L , thanks.
-0.626

Need abundance fitness of V45H , thanks.
0.013

Need abundance fitness of V45F , thanks.
-0.15

Need abundance fitness of L36W , thanks.
0.249

Need abundance fitness of D33E , thanks.
-0.081

Need abundance fitness of R68A , thanks.
-0.265
